biological target: androgen receptor (AR) (Homo sapiens, UniProt P10275, T878A); construct: endogenous in cells; experiment: Androgen-induced PSA-luciferase assay, Luciferase Assay A (LNCaP transiently transfected with PSA (6.1 kb)-luciferase reporter); settings: LNCaP cells, 1 h pretreatment, R1881 (1 nM) 24 h, read-out: PSA-Luc IC50 Range
Give measured IC50 for each item. Keep answers brief.

1) CC(C)(c1ccc(-c2cnc(N3CC(NS(C)(=O)=O)C3)nc2)cc1)c1cc(Cl)c(OCCCl)c(C#N)c1 [Compound A36] ... < 0.5 µM
2) CC(C)(c1ccc(OCc2ccnc(NS(=O)(=O)c3ccsc3)n2)cc1)c1cc(Cl)c(OCCCl)c(C#N)c1 [Compound A101] ... 0.5 to 2 µM
3) CS(=O)(=O)NC1CN(CCc2ccc(Oc3cc(Cl)c(OCCCl)c(C#N)c3)cc2)C1 [Compound A7] ... > 2 µM
4) CC(C)(c1ccc(OCc2ccnc(NS(C)(=O)=O)n2)cc1)c1cc(Cl)c(CCO)c(C#N)c1 [Compound A129] ... > 2 µM
5) CC(C)(c1ccc(Oc2cnc(CNS(C)(=O)=O)nc2)cc1)c1cc(Cl)c(OCCCl)c(C#N)c1 [Compound A86] ... 0.5 to 2 µM

# batch: return IC50 for each of the 6 molecules below
1. CC(C)(c1ccc(-c2cnc(CNS(C)(=O)=O)nc2)cc1)c1cc(Cl)c(OCCCl)c(C#N)c1 [Compound A4]
2. CS(=O)(=O)Nc1cnc2cc(-c3ccc(Oc4cc(Cl)c(OCCCl)c(C#N)c4)cn3)ccc2n1 [Compound A23]
3. CC(C)(c1ccc(-c2cnc(N3CC(NS(C)(=O)=O)C3)c(F)c2)cc1)c1cc(Cl)c(OCCCl)c(C#N)c1 [Compound A50]
4. CS(=O)(=O)Nc1cnc2cc(-c3ccc(N(c4cc(Cl)c(OC5CC5)c(C#N)c4)C4CC4)cc3)ccc2n1 [Compound A177]
5. CC(C)(c1ccc(-c2ccc(NC3CN(S(C)(=O)=O)C3)nc2)cc1)c1cc(Cl)c(OCCCl)c(C#N)c1 [Compound A53]
6. CC(C)(c1ccc(OCc2ccnc(NS(C)(=O)=O)n2)cc1)c1cnc(OCCCl)c(C#N)c1 [Compound A170]

# output
["0.5 to 2 µM", "> 2 µM", "< 0.5 µM", "0.5 to 2 µM", "< 0.5 µM", "> 2 µM"]

###

target: androgen receptor (AR) (Homo sapiens, UniProt P10275, T878A); construct: endogenous in cells; experiment: Androgen-induced PSA-luciferase assay, Luciferase Assay A (LNCaP transiently transfected with PSA (6.1 kb)-luciferase reporter); settings: LNCaP cells, 1 h pretreatment, R1881 (1 nM) 24 h, read-out: PSA-Luc IC50 Range
Field: IC50. Provide a value for each of the molecules that follow.

Before answering, review these 2 worked examples.
1) CC(C)(c1ccc(OCc2ccnc(NS(C)(=O)=O)n2)cc1)c1cc(Cl)c(OCCNS(C)(=O)=O)c(C#N)c1 ... > 2000 nM
2) CC(C)(c1cc(Cl)c(OCCCl)c(C#N)c1)c1ccc(OCc2ccnc(NS(C)(=O)=O)n2)c(CN)c1 ... > 2000 nM

For every item below, please supply its IC50.
1. CCCOc1c(Cl)cc(C(C)(C)c2ccc(OCc3ccnc(NS(C)(=O)=O)n3)cc2)cc1C#N
2. CC(C)(C)OC(=O)N1CCC(c2cc(COc3ccc(C(C)(C)c4cc(Cl)c(OCCCl)c(C#N)c4)cc3)nc(NS(C)(=O)=O)n2)CC1
3. CC(C)(c1ccc(-c2ccc3c(c2)COC32CN(S(C)(=O)=O)C2)cc1)c1cc(Cl)c(OCCCl)c(C#N)c1
4. CC(C)(c1ccc(-c2cnc(NC3CCN(S(C)(=O)=O)CC3)nc2)cc1)c1cc(Cl)c(OCCCl)c(C#N)c1

# output
1. < 500 nM
2. 500 to 2000 nM
3. 500 to 2000 nM
4. > 2000 nM

# input Entry `CC(C)(c1ccc(-c2cnc(N3CCC34CN(S(C)(=O)=O)C4)nc2)cc1)c1cc(Cl)c(OCCCl)c(C#N)c1` needs its IC50 filled in; supply it.
# output 500 to 2000 nM

###

Please provide measured half-life at 1 μM for the entries that follow.
assay: Microsomal stability assay, liver microsome half-life (rat); type: in vitro ADME; conditions: pH 7.4; rat liver microsomes 0.5 mg/mL + NADPH, 1 μM compound, 37° C; read-out: Liver microsome + NADPH T½ (min) Rat

1. CS(=O)(=O)Nc1cnc2cc(-c3ccc(Oc4cc(C#N)c(OC5CC5)c(C#N)c4)cc3)ccc2n1 ... > 120 min
2. CC(C)(c1ccc(-c2cnn(C34CC(NS(C)(=O)=O)(C3)C4)c2)cc1)c1cc(Cl)c(OCCCl)c(C#N)c1 ... > 120 min
3. CS(=O)(=O)Nc1cnc2cc(-c3ccc(N(CC(F)(F)F)c4cnc(OC5CC5)c(C#N)c4)cc3)ccc2n1 ... > 120 min
4. [2H]C([2H])([2H])N(c1ccc(-c2ccc3nc(NS(C)(=O)=O)cnc3c2)cc1)c1cc(Cl)c(OC2CC2)c(C#N)c1 ... > 120 min
5. CC(C)(c1ccc(OC[C@H]2C[C@H](NS(C)(=O)=O)C2)cc1)c1cc(Cl)c(OCCCl)c(C#N)c1 ... > 120 min
6. COc1c(Cl)cc(Oc2ccc(-c3ccc4nc(NS(C)(=O)=O)cnc4c3)cc2)cc1C#N ... > 120 min
7. CS(=O)(=O)Nc1nc2ccc(-c3ccc(Oc4cc(Cl)c(OC5CC5)c(C#N)c4)cc3)cc2cc1F ... > 120 min
8. CC(C)(c1ccc(-c2cnn(CCNS(C)(=O)=O)c2)cc1)c1cc(Cl)c(OCCCl)c(C#N)c1 ... 72 min
9. COc1c(Cl)cc(C(C)(C)c2ccc(OCc3ccnc(NS(C)(=O)=O)n3)cc2)cc1C#N ... > 120 min
10. CS(=O)(=O)Nc1cnc2cc(-c3ccc(Oc4cc(Cl)c(OCCCl)c(C#N)c4)cc3)ccc2n1 ... > 120 min

I have 3 compounds here; please give me half-life at 1 μM for each one.
1. CC(C)(c1ccc(-c2ccc(CNS(C)(=O)=O)nc2)cc1)c1cc(Cl)c(OCCCl)c(C#N)c1
2. CNC(=O)c1ccc(N2C(=S)N(c3ccc(C#N)c(C(F)(F)F)c3)C(=O)C2(C)C)cc1F [Enzalutamide, enzalutamide, reference compound]
3. CC(C)(C)N(c1ccc(-c2ccc3nc(NS(C)(=O)=O)cnc3c2)cc1)c1cc(Cl)c(OCCCl)c(C#N)c1

# output
["61 min", "> 120 min", "> 120 min"]

# input Give the reported value of half-life at 1 μM for this record: `CS(=O)(=O)Nc1cnc2cc(-c3ccc(N(CC(F)(F)F)c4cc(Cl)c(OCCCl)c(C#N)c4)cc3)ccc2n1`
# output > 120 min

###

Record form. Attribute: pIC50. Fill in for each entry.
Molecular target: androgen receptor (AR) (Homo sapiens)
Sequence (P10275 1-920 T878A): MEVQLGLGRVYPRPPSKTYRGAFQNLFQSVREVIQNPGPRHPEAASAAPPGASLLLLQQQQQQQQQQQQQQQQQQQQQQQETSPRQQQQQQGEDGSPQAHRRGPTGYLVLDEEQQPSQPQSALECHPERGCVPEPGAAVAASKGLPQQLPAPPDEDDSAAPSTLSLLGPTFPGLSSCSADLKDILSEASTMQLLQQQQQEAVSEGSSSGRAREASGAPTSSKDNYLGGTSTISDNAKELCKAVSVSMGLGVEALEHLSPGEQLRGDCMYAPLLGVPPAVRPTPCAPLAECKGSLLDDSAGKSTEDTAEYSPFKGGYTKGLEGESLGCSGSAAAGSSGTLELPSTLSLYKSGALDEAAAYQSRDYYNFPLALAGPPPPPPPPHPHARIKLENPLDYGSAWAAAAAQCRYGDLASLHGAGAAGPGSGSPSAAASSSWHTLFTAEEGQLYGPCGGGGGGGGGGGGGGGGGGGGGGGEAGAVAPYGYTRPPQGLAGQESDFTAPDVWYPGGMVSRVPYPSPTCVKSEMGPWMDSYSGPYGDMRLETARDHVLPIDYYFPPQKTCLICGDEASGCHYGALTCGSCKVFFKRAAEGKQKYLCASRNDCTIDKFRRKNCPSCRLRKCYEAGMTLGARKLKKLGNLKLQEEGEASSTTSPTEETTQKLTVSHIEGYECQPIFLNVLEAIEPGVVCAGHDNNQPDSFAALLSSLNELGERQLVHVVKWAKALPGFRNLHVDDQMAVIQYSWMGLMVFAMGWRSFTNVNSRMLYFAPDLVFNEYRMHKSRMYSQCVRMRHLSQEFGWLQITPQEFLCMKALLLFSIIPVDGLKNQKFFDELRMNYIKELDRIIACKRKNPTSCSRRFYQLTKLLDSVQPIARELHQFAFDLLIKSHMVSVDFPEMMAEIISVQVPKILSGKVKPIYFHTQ
Assay: Androgen-induced PSA-luciferase assay, Luciferase Assay B (cells stably expressing ARR2PB or PSA-firefly luciferase reporter, 384-well)
Conditions: Luciferase Assay B (Compounds A186-A219 and A221-A245); stable luciferase reporter cells, 1 h pretreatment, R1881 24 h, serum-free; read-out: PSA-Luc IC50 Range
pIC50: −log10 of the molar value.

Some compounds with known pIC50 results, for comparison:
1. CS(=O)(=O)NCc1nccc(COc2ccc(N(CC(F)(F)F)c3cc(Cl)c(OC4CC4)c(C#N)c3)cc2)n1 [Compound A221] ... > 6.30
2. CS(=O)(=O)Nc1cncc(N2CCN(c3ccc(Oc4cc(Cl)c(OC5CC5)c(C#N)c4)cc3)CC2)n1 [Compound A229] ... < 5.70
3. CS(=O)(=O)Nc1cnc2cc(-c3ccc(Oc4cc(C#N)c(OC5CC5)c(C#N)c4)cc3)ccc2n1 [Compound A198] ... > 6.30

Give pIC50 for each listed item.
1. CS(=O)(=O)Nc1nccc(COc2ccc(N(CC(F)(F)F)c3cc(Cl)c(N4CCOCC4)c(C#N)c3)cc2)n1 [Compound A223]
2. N#Cc1cc(Oc2ccc(-c3ccc4nc(N5CCS(=O)(=O)CC5)cnc4c3)cc2)cc(Cl)c1OC1CC1 [Compound A206]
3. CN(c1ccc(-c2ccc3nc(NS(C)(=O)=O)cnc3c2)cc1)c1cc(F)c(OC2CC2)c(C#N)c1 [Compound A208]
4. CS(=O)(=O)Nc1cnc2cc(-c3ccc(N(CC(F)(F)F)c4cnc(OC5CC5)c(C#N)c4)cc3)ccc2n1 [Compound A203]
5. CS(=O)(=O)Nc1cnc2ccc(-c3ccc(Oc4cc(Cl)c(OC5CC5)c(C#N)c4)cc3)cc2n1 [Compound A193]
6. CS(=O)(=O)NCc1ccc(-c2ccc(Oc3cc(Cl)c(OC4CC4)c(C#N)c3)cc2)cn1 [Compound A212]
7. CS(=O)(=O)Nc1ncc(-c2ccc(Oc3cc(Cl)c(OC4CC4)c(C#N)c3)cc2)cn1 [Compound A196]

# output
1: > 6.30; 2: 5.70 to 6.30; 3: > 6.30; 4: > 6.30; 5: 5.70 to 6.30; 6: 5.70 to 6.30; 7: 5.70 to 6.30
